Listed binders paired with reported % Inhibition at 1 nM Ig of interferon gamma release in human blood
MEASUREMENT TARGET: T1, TL1A in human blood (endogenous) (human, UniProt O95150 72-251, limits assumed)
T1 sequence (looked up): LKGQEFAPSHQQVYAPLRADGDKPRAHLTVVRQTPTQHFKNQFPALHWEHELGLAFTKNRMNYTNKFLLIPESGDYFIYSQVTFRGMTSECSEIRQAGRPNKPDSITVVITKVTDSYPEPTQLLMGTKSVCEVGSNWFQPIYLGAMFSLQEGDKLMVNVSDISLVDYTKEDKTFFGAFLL
PROTOCOL NOTES: cell-based or functional assay
State just the number; it will be interpreted in %.

// below: answered binders
• A212 (antibody, human IgG1, V domains shown) VH: QVQLVQSGAEVKKPGASVKVSCKASGFDIQDTYMHWVRQRPGQGLEWIGRIDPASGHTKYDPKFQVRATITTDTSTSTAYLELSSLRSEDTAVYYCARSGGLPDVWGQGTTVTVSS VL: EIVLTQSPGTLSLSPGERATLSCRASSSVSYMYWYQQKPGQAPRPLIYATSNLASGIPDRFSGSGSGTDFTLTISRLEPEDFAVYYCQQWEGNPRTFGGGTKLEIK = 46.8
• A147 (antibody, human IgG1, V domains shown) VH: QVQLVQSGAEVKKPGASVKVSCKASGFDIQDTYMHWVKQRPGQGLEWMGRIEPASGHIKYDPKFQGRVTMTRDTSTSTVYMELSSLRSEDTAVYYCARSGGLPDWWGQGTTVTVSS VL: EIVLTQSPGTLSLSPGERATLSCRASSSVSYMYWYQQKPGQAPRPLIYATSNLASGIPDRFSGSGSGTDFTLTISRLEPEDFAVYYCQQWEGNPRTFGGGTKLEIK = 51.3

Quick one: % Inhibition at 1 nM Ig of interferon gamma release in human blood for A219 (antibody, V domains shown) VH: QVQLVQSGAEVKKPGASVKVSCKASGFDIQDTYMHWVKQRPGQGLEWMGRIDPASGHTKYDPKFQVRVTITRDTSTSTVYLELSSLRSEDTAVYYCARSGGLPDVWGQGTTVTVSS VL: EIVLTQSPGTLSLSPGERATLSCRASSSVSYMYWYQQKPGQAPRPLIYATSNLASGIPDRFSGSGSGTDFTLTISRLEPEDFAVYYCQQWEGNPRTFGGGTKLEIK ? 59.8
